Reported EC50 values for the following compounds.
- ASSAYED TARGET: human orexin type 2 receptor (hOX2R) (Homo sapiens)
- Construct: expressed in transfected cells
- Sequence (O43614 whole entry): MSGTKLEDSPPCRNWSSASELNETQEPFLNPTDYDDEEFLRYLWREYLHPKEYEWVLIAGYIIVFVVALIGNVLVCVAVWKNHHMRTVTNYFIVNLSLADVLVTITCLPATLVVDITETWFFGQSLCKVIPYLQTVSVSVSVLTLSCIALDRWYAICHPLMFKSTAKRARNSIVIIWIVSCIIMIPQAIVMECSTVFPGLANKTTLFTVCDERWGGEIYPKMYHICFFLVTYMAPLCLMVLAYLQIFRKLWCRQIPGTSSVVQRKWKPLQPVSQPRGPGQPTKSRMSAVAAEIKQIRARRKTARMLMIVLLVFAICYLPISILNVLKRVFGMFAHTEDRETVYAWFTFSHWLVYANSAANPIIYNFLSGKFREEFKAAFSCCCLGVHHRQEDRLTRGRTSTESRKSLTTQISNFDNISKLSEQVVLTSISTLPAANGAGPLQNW
- ASSAY EXPLANATION: Measurement of orexin type 2 receptor agonist activity (FLIPR calcium fluorescence)
- Format: cell-based
- MEASUREMENT PARAMETERS: CHO cells expressing hOX2R, FLIPR calcium fluorescence; read-out: hOx2 pEC50 (converted)

Here are 3 compounds together with their reported answers.
- COMPOUND: "O=C(NCC(F)F)N1CC2(CC2)[C@H](NS(=O)(=O)CF)[C@@H]1Cc1cccc(-c2cc(F)cc(F)c2)c1F"
  ASSAYED TARGET: "human orexin type 2 receptor (hOX2R) (Homo sapiens)"
  EC50: "0.0794 to 1 nM"
- COMPOUND: "C[C@](O)(C(=O)N1CC2(CC2)[C@H](NS(=O)(=O)CF)[C@@H]1Cc1cccc(-c2ccccc2)c1F)C(F)F"
  ASSAYED TARGET: "human orexin type 2 receptor (hOX2R) (Homo sapiens)"
  EC50: "1 to 10 nM"
- COMPOUND: "CS(=O)(=O)N[C@@H]1[C@H](Cc2cccc(-c3ccccc3)c2F)N(C(=O)C2(O)CCC2)CC12CC2"
  ASSAYED TARGET: "human orexin type 2 receptor (hOX2R) (Homo sapiens)"
  EC50: "0.0794 to 1 nM"

Would you kindly share the measured EC50 for `C[C@H](O)CN(C)C(=O)N1CC2(CC2)[C@H](NS(C)(=O)=O)[C@@H]1Cc1cccc(-c2ccccc2)c1F` ?
1 to 10 nM

Would you kindly share the measured EC50 for `O=C([C@H](O)CF)N1CC2(CC2)[C@H](NS(=O)(=O)CF)[C@@H]1Cc1cc(F)cc(-c2ccccc2)c1F` ?
1 to 10 nM

Would you kindly share the measured EC50 for `O=C([C@H]1CCO1)N1CC2(CC2)[C@H](NS(=O)(=O)/C=C/F)[C@@H]1Cc1cccc(-c2ccccc2)c1F` ?
10 to 100 nM

Would you kindly share the measured EC50 for `O=C([C@H]1CCO1)N1CC2(CC2)[C@H](NS(=O)(=O)C(F)F)[C@@H]1Cc1cccc(-c2cc(F)cc(F)c2)c1` ?
1 to 10 nM

Would you kindly share the measured EC50 for `CN(C)S(=O)(=O)N[C@@H]1[C@H](Cc2cc(F)cc(-c3ccccc3)c2F)N(C(=O)[C@H](O)CF)CC12CC2` ?
1 to 10 nM

Would you kindly share the measured EC50 for CN(C)S(=O)(=O)N[C@@H]1[C@H](Cc2cc(F)cc(-c3ccccc3)c2F)N(C(=O)C2CCO2)CC12CC2 (stereo partly drawn) ?
1 to 10 nM
